assay.target: FKBP12 (Homo sapiens)
Sequence (P62942 whole entry): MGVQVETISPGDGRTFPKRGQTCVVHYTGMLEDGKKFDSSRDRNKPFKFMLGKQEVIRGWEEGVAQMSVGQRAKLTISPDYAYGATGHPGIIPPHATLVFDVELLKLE
assay.remarks: NanoBRET FKBP12 in intact HEK293 cells
Threshold-based label: IC50 under 200 nM gives t, IC50 not under 200 nM gives f.

C=CC1CN(Cc2cn(CCOCCOCCNC(=O)CC3N=C(c4ccc(Cl)cc4)c4c(sc(C)c4C)-n4c(C)nnc43)nn2)C(=O)C2CCCC1N2S(=O)(=O)c1cc(Cl)cc(Cl)c1 (stereo not shown) [a2i]	t

API: query returns whether the molecule falls strictly under 200 nM in IC50. Query: Cc1sc2c(c1C)C(c1ccc(Cl)cc1)=NC(CC(=O)N1CCN(CCn3cc(COCC4CN(Cc5ccccn5)C(=O)C5CCCC4N5S(=O)(=O)c4cc(Cl)cc(Cl)c4)nn3)CC1)c1nnc(C)n1-2 (stereo not shown) [a4d] t

API: query returns whether the molecule falls strictly under 200 nM in IC50. Query: Cc1sc2c(c1C)C(c1ccc(Cl)cc1)=NC(CC(=O)N1CCC(N3CCC(Cn4cc(C5CN(Cc6ccccn6)C(=O)C6CCCC5N6S(=O)(=O)c5cc(Cl)cc(Cl)c5)nn4)CC3)CC1)c1nnc(C)n1-2 (stereo not shown) [a10c] f

API: query returns whether the molecule falls strictly under 200 nM in IC50. Query: Cc1sc2c(c1C)C(c1ccc(Cl)cc1)=NC(CC(=O)N1CC(CN3CCC(Cn4cc(COCC5CN(Cc6ccccn6)C(=O)C6CCCC5N6S(=O)(=O)c5cc(Cl)cc(Cl)c5)nn4)CC3)C1)c1nnc(C)n1-2 (stereo not shown) [a12d] f

API: query returns whether the molecule falls strictly under 200 nM in IC50. Query: Cc1sc2c(c1C)C(c1ccc(Cl)cc1)=NC(CC(=O)N1CCC(N3CCC(Cn4cc(COCC5CN(Cc6ccccn6)C(=O)C6CCCC5N6S(=O)(=O)c5cc(Cl)cc(Cl)c5)nn4)CC3)CC1)c1nnc(C)n1-2 (stereo not shown) [a10d] f

API: query returns whether the molecule falls strictly under 200 nM in IC50. Query: Cc1sc2c(c1C)C(c1ccc(Cl)cc1)=NC(CC(=O)N1CC(CN3CCC(n4cc(COCC5CN(Cc6ccccn6)C(=O)C6CCCC5N6S(=O)(=O)c5cc(Cl)cc(Cl)c5)nn4)CC3)C1)c1nnc(C)n1-2 (stereo not shown) [a11d] t

* * *

assay.target: BRD4^BD1 (Homo sapiens)
Construct: to the isolated BD1 and BD2 domains of BRD2, BRD3 and BRD4
assay.remarks: competitive fluorescence polarization assay, BRD4 BD1 -/+ presenter protein
Assay type: binding
run.parameters: absence of FKBP12; 2 nM JQ1-FL tracer; read-out: Binding to BRD4^BD1 - FKBP12 Kd
experimental.endpoint: pKd
Scale note: pKd = -log10(concentration in M).

Cc1sc2c(c1C)C(c1ccc(Cl)cc1)=NC(CC(=O)N1CCC(N3CCC(Cn4cc(C5CN(Cc6ccccn6)C(=O)C6CCCC5N6S(=O)(=O)c5cc(Cl)cc(Cl)c5)nn4)CC3)CC1)c1nnc(C)n1-2 (centres unmarked) [a10c]	6.92
Cc1sc2c(c1C)C(c1ccc(Cl)cc1)=NC(CC(=O)NCCOCCn1cc(COCC3CN(Cc4ccccn4)C(=O)C4CCCC3N4S(=O)(=O)c3cc(Cl)cc(Cl)c3)nn1)c1nnc(C)n1-2 (centres unmarked)	6.35
Cc1sc2c(c1C)C(c1ccc(Cl)cc1)=NC(CC(=O)N1CC(CN3CCC(Cn4cc(COCC5CN(Cc6ccccn6)C(=O)C6CCCC5N6S(=O)(=O)c5cc(Cl)cc(Cl)c5)nn4)CC3)C1)c1nnc(C)n1-2 (centres unmarked) [a12d]	6.60

Entry Cc1sc2c(c1C)C(c1ccc(Cl)cc1)=NC(CC(=O)N1CC(CN3CCC(Cn4cc(C5CN(Cc6ccccn6)C(=O)C6CCCC5N6S(=O)(=O)c5cc(Cl)cc(Cl)c5)nn4)CC3)C1)c1nnc(C)n1-2 (centres unmarked) [a12c] , system BRD4^BD1 (Homo sapiens): what pKd was measured? 6.41

Entry C=C[C@H]1CN(Cc2ccccn2)C(=O)[C@@H]2CCC[C@H]1N2S(=O)(=O)c1ccc(-c2cn(CCOCCOCCNC(=O)C[C@@H]3N=C(c4ccc(Cl)cc4)c4c(sc(C)c4C)-n4c(C)nnc43)nn2)c(Cl)c1 , system BRD4^BD1 (Homo sapiens): what pKd was measured? 6.68
